# EC50 listing for each entry below
- Test system: CEM cells HIV-1 protection, formazan growth assay
- assay.protocol: NCI AIDS Antiviral Assay
- Method: The ability of compounds to protect human CEM cells from HIV-1 infection is measured as a screen for new compounds capable of inhibiting the HIV virus. Five concentrations of drug were tested on uninfected and infected cells and cell growth was measured using a soluble formazan assay. […] Compounds that provided at least 50% protection were retested. Compounds that provided at least 50% protection on retest were listed as moderately active. […]

Some compounds with known EC50 results, for comparison:
compound="COC(=O)/C(=N/NC(=O)C[N+](C)(C)C)C(C(=O)OC)C(=O)C(=O)Nc1ccc(F)cc1 (stereo not given)" result="> 145 µM"
compound=O=C(CCc1ccccc1CO)NCCc1ccccc1 result="> 200 µM"
compound=CCOC(=O)/C(=C\n1c(=S)[nH]c2ccccc21)C(=O)c1ccccc1 result="> 200 µM"
compound=CCOC(=O)C1=NN(c2ccccc2)C(=O)/C1=C\N1C(=O)/C(=C/c2cccc(OC)c2O)SC1=S result="> 100 µM"

### Prompt Quick check: EC50 on CEM cells HIV-1 protection, formazan growth assay, item C[C@H]1CC[P+](Cc2ccccc2)(c2ccccc2)C1 (stereo not given in full) ?
### Response > 708 µM
